- Tested on: NCI-H522
- procedure-text: NCI tumour cell line growth inhibition, 48 h
Calls of active or inactive are those of the source. Rule as the data show it: active = GI50 up to about 1.1 µM and inactive = higher.
Log the outcome using a class from active, inactive

Solved entries (count: 10):
# compound, assigned-class
measured = [
    ("Cc1[nH]c2ccccc2c1-c1cc(-c2cc(-c3c(C)[nH]c4ccccc34)on2)no1", "inactive"),
    ("O=c1c2cc(S(=O)(=O)O)ccc2nc(COc2ccc(Oc3ccc(Cl)cc3Cl)cc2)n1-c1ccc(Cl)cc1Oc1c(Cl)cccc1Cl", "inactive"),
    ("CC(=O)OCC1OC(n2c(C#N)cc(=O)[nH]c2=O)CC1OC(C)=O (stereo unspecified)", "inactive"),
    ("Nc1cc(S(=O)(=O)O)cc2ccc(S(=O)(=O)O)cc12", "inactive"),
    ("O=P1(c2ccccc2)C2=CCC=CC2C(c2ccccc2)N1Cc1ccccc1 (stereo unspecified)", "inactive"),
    ("N#CC(/N=N/c1ccccc1)c1nc2ccccc2o1 (stereo unspecified)", "inactive"),
    ("CC1(C)CC(/C=C2/OC(=O)c3ccccc32)=C(C(N)=O)C(=O)O1", "inactive"),
    ("O=C(O)CN1CCSc2ccccc2CN(CC(=O)O)CCSc2ccccc2C1", "inactive"),
    ("CC(C)NC(=O)OCc1c(COC(=O)NC(C)C)c(-c2cc[n+](COC(=O)C3CC3)cc2)n2c1CCC2", "inactive"),
    ("C(/C=N/c1ccccc1)=C(/Nc1ccccc1)c1ccc2ccccc2c1", "inactive"),
]

Ask: Any idea what this test logged for C/C(=C\CO)CC[C@@H]1[C@@]2(C)CCCC(C)(C)[C@@H]2CC[C@@]1(C)O ?
Result: inactive

Ask: Now the compound OCC(O)COc1ccc(F)cc1 (stereo unspecified)
Result: inactive

Ask: Now the compound O=C1/C(=C2/CCCN2)C(c2ccc[nH]2)=NN1c1ccccc1
Result: inactive

Ask: Now the compound CN(C)CCCNc1ccc2ncn3c4ccc(O)cc4c(=O)c1c23
Result: active

Ask: Now the compound O=C1Nc2ccccc2C1Cc1ccc([N+](=O)[O-])cc1 (stereo unspecified)
Result: inactive

Ask: Now the compound Cc1cccc2c1Oc1ccccc1C2NC(=O)c1ccc([N+](=O)[O-])cc1 (stereo unspecified)
Result: inactive

Ask: Now the compound O=c1c2cc(Cl)cc(Cl)c2oc2nc3n(c(=O)c12)CCCS3
Result: inactive

Ask: Now the compound CC1(C)C=C(/C=C2/N(S(=O)(=O)C(F)(F)F)C(/C=C3/N(S(=O)(=O)C(F)(F)F)C(C)(C#N)CC3(C)C)=CC2(C)C)N=C1/C=C1/CC(C)(C)C(=O)N1 (stereo unspecified)
Result: inactive

Ask: Now the compound Nc1nc(N)c2ncn(-c3ccccc3)c2n1
Result: inactive

Ask: Now the compound COC(=O)C1=C(C(=O)OC)C(C(=O)c2ccc(Br)cc2)N2N=C(c3ccc(Cl)cc3)C=CC12 (stereo unspecified)
Result: inactive

----------
- Tested on: SK-MEL-2
- procedure-text: NCI tumour cell line growth inhibition, 48 h
Active and inactive are the calls of the source. No stated cut-off is given here; in the data, active = GI50 up to about 1.1 µM and inactive = higher.
Log the outcome using a class from active, inactive

# molecule, assigned-class
data = [
    ("C(/C=N/c1ccccc1)=C(/Nc1ccccc1)c1ccc2ccccc2c1", "inactive"),
    ("CN1CCN(CC(=O)Nc2cccc3ccccc23)CC1", "inactive"),
    ("CC(C)(C)c1ccnc(/N=C2\\N/C(=N\\c3cc(C(C)(C)C)ccn3)c3ccccc32)c1", "inactive"),
]

Ask: Any idea what this test logged for COC1(OC)C2(Cl)C(Cl)=C(Cl)C1(Cl)C1C=CC=CC12 (stereo unspecified) ?
Result: inactive

Ask: Now the molecule CC(=O)Oc1c(C)cc(-c2cc(C)c(OC(C)=O)c(C)c2)cc1C
Result: inactive

Ask: Now the molecule CCOC(=O)Cc1nn2c(=O)cc(C)nc2s1
Result: inactive

Ask: Now the molecule O=C(O)C12C3C4(C(=O)O)C1C1(C(=O)O)C2C3(C(=O)O)C41 (stereo unspecified)
Result: inactive

Ask: Now the molecule O=P(Nc1ccccc1)(Oc1ccccc1)N(CCCl)CCCl (stereo unspecified)
Result: inactive

Ask: Now the molecule Cc1ccc(/N=C2\OP(=O)(Nc3ccc(C)cc3)Oc3ccccc32)cc1 (stereo unspecified)
Result: inactive

Ask: Now the molecule C[n+]1c(-c2ccccc2)cc2/c(=C\c3ccccc3)c3ccccc3n21
Result: active

Ask: Now the molecule C/C(=C\CO)CC[C@@H]1[C@@]2(C)CCCC(C)(C)[C@@H]2CC[C@@]1(C)O
Result: inactive

Ask: Now the molecule O=C(c1cccs1)N(C(=S)N1CCN(c2ccccc2)CC1)C1CCCCC1
Result: inactive

Ask: Now the molecule Nc1ncnc2c1ncn2C1OC(C(=O)OCCO)C(O)C1O (stereo unspecified)
Result: inactive

Ask: Now the molecule CC1OC2=N[C@@H]1C(=O)N[C@@H](C(C)C)C1=N[C@H](C(=O)N[C@@H](C(C)C)C3=N[C@H](C(=O)N[C@@H](C(C)C)C4=N[C@H](C(=O)N[C@H]2C(C)C)C(C)O4)C(C)O3)C(C)O1 (stereo partly specified)
Result: inactive

Ask: Now the molecule O=c1c(C(c2ccc(Cl)cc2)c2c(O)c3ccccc3n(-c3ccccc3)c2=O)c(O)c2ccccc2n1-c1ccccc1
Result: inactive

Ask: Now the molecule N#CC1(O)CCCCCCCCCCC1
Result: inactive

Ask: Now the molecule CCc1ccccc1N1C(=O)C(=O)C(c2nc3ccccc3s2)C(=O)C1=O
Result: inactive
